# protocol_notes: Cytotoxicity against human paclitaxel-resistant A2780T cells after 48 hrs by MTT assay
# Type: functional, cell-based
# details: A2780/Taxol
Here the recorded pIC50 is given for each entry.
The read-out pIC50 is expressed as -log10 of concentration in moles per litre.

Request: Fill in the blank: the reported pIC50 of CN(C)CCCCCN(C)C1=Nc2ccccc2C(CC(=O)NCc2ccccc2)N1c1ccc(-c2ccccc2)cc1 (stereo not drawn) is ____.
Result: 5.80

Request: Repeat for the following compound: CN(C)CCN1CCN(C2=Nc3ccccc3C(CC(=O)NCc3ccc(F)cc3)N2c2ccc(-c3ccccc3)cc2)CC1 (stereo not drawn)
Result: 5.40

Others:
Request: Fill in the blank: the reported pIC50 of COc1ccc(CNC(=O)CC2c3ccccc3N=C(N3CCN(CCN(C)C)CC3)N2c2ccc(-c3ccccc3)cc2)cc1 (stereo not drawn) is ____.
Result: 5.42

Request: Repeat for the following compound: COCC(=O)O[C@]1(CCN(C)CCCc2nc3ccccc3[nH]2)CCc2cc(F)ccc2[C@@H]1C(C)C [MIBEFRADIL]
Result: 4.45

Request: Repeat for the following compound: CN(C)CCCCN(C)C1=Nc2ccccc2C(CC(=O)NCc2ccccc2)N1c1ccc(-c2ccccc2)cc1 (stereo not drawn)
Result: 5.40

Request: Repeat for the following compound: Cc1ccc(CNC(=O)CC2c3ccccc3N=C(N3CCN(CCN(C)C)CC3)N2c2ccc(-c3ccccc3)cc2)cc1 (stereo not drawn)
Result: 5.45

----------
# measurement_target: Voltage-dependent T-type calcium channel subunit alpha-1G (Homo sapiens, UniProt O43497)
# Sequence (O43497 whole entry): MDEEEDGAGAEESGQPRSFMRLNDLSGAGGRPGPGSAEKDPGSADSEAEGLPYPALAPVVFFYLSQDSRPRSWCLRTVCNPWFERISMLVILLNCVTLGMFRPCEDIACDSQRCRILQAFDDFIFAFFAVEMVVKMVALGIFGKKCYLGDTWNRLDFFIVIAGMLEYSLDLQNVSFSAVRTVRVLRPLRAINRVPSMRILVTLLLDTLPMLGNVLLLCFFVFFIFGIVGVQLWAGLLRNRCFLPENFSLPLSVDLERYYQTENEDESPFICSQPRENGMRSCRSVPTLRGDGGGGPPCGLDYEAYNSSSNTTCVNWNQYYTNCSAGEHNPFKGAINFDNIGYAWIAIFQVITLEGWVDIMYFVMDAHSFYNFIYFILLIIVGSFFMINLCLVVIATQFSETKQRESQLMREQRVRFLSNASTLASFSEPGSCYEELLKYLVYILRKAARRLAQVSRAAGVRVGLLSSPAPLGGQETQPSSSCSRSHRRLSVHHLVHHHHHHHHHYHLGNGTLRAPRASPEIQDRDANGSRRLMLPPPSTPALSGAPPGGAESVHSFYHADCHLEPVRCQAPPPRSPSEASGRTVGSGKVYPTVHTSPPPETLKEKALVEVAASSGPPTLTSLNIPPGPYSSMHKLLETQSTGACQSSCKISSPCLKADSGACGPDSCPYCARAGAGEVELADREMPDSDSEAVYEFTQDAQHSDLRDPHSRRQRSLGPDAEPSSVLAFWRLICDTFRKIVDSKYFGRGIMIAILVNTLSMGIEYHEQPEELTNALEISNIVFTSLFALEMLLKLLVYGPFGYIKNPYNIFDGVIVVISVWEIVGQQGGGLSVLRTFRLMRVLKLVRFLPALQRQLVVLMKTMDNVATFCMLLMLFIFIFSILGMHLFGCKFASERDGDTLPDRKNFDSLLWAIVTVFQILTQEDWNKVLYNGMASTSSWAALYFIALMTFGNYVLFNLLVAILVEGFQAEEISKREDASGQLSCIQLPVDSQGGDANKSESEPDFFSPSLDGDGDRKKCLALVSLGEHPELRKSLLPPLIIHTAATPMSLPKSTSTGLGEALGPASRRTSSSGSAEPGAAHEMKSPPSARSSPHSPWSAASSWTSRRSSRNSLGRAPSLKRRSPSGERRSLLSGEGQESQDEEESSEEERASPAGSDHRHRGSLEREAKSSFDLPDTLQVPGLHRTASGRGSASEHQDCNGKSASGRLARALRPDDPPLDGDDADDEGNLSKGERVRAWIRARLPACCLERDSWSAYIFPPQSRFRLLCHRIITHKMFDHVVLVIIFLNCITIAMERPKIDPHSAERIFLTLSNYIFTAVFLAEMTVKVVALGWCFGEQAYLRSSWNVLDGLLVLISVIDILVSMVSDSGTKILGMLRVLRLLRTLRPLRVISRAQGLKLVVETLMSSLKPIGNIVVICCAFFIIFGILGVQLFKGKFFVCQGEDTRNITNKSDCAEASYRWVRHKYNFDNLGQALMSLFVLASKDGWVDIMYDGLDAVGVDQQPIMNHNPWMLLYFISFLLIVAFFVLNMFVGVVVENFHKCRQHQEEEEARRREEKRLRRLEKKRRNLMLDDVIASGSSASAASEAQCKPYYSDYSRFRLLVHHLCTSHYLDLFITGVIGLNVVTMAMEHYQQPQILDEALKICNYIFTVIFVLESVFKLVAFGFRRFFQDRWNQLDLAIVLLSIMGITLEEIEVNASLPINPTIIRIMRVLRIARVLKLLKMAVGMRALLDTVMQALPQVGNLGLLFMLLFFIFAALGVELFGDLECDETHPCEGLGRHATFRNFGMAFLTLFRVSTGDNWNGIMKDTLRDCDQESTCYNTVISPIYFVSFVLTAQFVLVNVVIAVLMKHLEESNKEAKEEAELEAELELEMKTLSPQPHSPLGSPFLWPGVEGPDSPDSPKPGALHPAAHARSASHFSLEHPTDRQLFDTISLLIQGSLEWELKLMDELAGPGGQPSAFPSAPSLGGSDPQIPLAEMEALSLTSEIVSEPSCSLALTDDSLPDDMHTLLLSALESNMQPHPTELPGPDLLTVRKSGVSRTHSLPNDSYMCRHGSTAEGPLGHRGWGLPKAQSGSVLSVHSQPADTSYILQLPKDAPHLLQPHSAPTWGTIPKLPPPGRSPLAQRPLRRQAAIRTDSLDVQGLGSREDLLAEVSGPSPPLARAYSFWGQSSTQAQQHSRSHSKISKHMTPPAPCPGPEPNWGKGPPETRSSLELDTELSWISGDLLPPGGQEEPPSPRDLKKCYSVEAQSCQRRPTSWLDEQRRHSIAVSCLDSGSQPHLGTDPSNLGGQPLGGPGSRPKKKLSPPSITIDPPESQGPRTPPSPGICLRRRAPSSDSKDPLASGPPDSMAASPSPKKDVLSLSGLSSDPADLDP
# protocol_notes: Inhibition of t-type Cav3.1 channel (unknown origin) expressed in HEK293 cells assessed as inhibition of 50 ms depolarizing voltage step-induced current at 1 uM by whole cell patch-clamp method relative to control
# Type: cell-based
readout: inhibition (%)
Please reply with the bare figure in % and do not write the unit itself.

Check out these entries, answers already filled in.
Request: Fill in the blank: the reported inhibition of CN(C)CCCCN(C)C1=Nc2ccccc2C(CC(=O)NCc2ccccc2)N1c1ccc(-c2ccccc2)cc1 (stereo not drawn) is ____.
Result: 81.7

Request: Repeat for the following compound: CN(C)CCCCCCN(C)C1=Nc2ccccc2C(CC(=O)NCc2ccccc2)N1c1ccc(-c2ccccc2)cc1 (stereo not drawn)
Result: 66.7

Request: Repeat for the following compound: CN(C)CCN1CCN(C2=Nc3ccccc3C(CC(=O)NCc3ccc(F)cc3)N2c2ccc(-c3ccccc3)cc2)CC1 (stereo not drawn)
Result: 81

Request: Repeat for the following compound: COc1ccc(CNC(=O)CC2c3ccccc3N=C(N(C)CCCCCN(C)C)N2c2ccc(-c3ccccc3)cc2)cc1 (stereo not drawn)
Result: 68.2

Request: Repeat for the following compound: CN(C)CCCCCN(C)C1=Nc2ccccc2C(CC(=O)NCc2ccccc2)N1c1ccc(-c2ccccn2)cc1 (stereo not drawn)
Result: 30.9

Request: Repeat for the following compound: CN(C)CCN1CCN(C2=Nc3ccccc3C(CC(=O)NCc3ccccn3)N2c2ccc(-c3ccccc3)cc2)CC1 (stereo not drawn)
Result: 43.9

Others:
Request: Fill in the blank: the reported inhibition of Cc1ccc(CNC(=O)CC2c3ccccc3N=C(N3CCN(CCN(C)C)CC3)N2c2ccc(-c3ccccc3)cc2)cc1 (stereo not drawn) is ____.
Result: 57.8

Request: Repeat for the following compound: CN(C)CCN1CCN(C2=Nc3ccccc3C(CC(=O)NCc3ccccc3)N2c2ccc(-c3ccccn3)cc2)CC1 (stereo not drawn)
Result: 32.3

Request: Repeat for the following compound: CN(C)CCN1CCN(C2=Nc3ccccc3C(CC(=O)NCc3ccncc3)N2c2ccc(-c3ccccc3)cc2)CC1 (stereo not drawn)
Result: 29.1

Request: Repeat for the following compound: COc1ccc(CNC(=O)CC2c3ccccc3N=C(N3CCN(CCN(C)C)CC3)N2c2ccc(-c3ccccc3)cc2)cc1 (stereo not drawn)
Result: 75.9

Request: Repeat for the following compound: CN(C)CCN1CCN(C2=Nc3ccccc3C(CC(=O)NCc3ccccc3)N2c2ccc(-c3ccccc3)cc2)CC1 (stereo not drawn)
Result: 46.8

Request: Repeat for the following compound: COCC(=O)O[C@]1(CCN(C)CCCc2nc3ccccc3[nH]2)CCc2cc(F)ccc2[C@@H]1C(C)C
Result: 55.1

Request: Repeat for the following compound: CN(C)CCCCCN(C)C1=Nc2ccccc2C(CC(=O)NCc2ccccc2)N1c1ccc(-c2ccccc2)cc1 (stereo not drawn)
Result: 76.6

----------
Here the recorded pIC50 is given for each entry.
# protocol_notes: Cytotoxicity against human paclitaxel-resistant A2780T cells after 48 hrs by MTT assay
# Format: functional, cell-based
# details: A2780/Taxol
The read-out pIC50 is expressed as -log10 of concentration in moles per litre.

Request: Fill in the blank: the reported pIC50 of CN(C)CCCCCCN(C)C1=Nc2ccccc2C(CC(=O)NCc2ccccc2)N1c1ccc(-c2ccccc2)cc1 (stereo not given) is ____.
Result: 5.76

Request: Repeat for the following compound: COc1ccc(CNC(=O)CC2c3ccccc3N=C(N(C)CCCCCN(C)C)N2c2ccc(-c3ccccc3)cc2)cc1 (stereo not given)
Result: 5.60

Consider the record given below.
Request: Fill in the blank: the reported pIC50 of CN(C)CCN1CCN(C2=Nc3ccccc3C(CC(=O)NCc3ccccc3)N2c2ccc(-c3ccccc3)cc2)CC1 (stereo not given) is ____.
Result: 5.62

----------
# Test system: HEK293
# protocol_notes: Cytotoxicity against human HEK293 cells after 48 hrs by MTT assay
# Assay type: cell-based
# details: HEK293, 48 h
readout: IC50 (µM)
Please reply with the bare figure in µM and do not write the unit itself.

Request: Fill in the blank: the reported IC50 of COc1ccc(CNC(=O)CC2c3ccccc3N=C(N3CCN(CCN(C)C)CC3)N2c2ccc(-c3ccccc3)cc2)cc1 (configuration not stated) is ____.
Result: 9.28

Consider the record given below.
Request: Fill in the blank: the reported IC50 of CN(C)CCN1CCN(C2=Nc3ccccc3C(CC(=O)NCc3ccc(F)cc3)N2c2ccc(-c3ccccc3)cc2)CC1 (configuration not stated) is ____.
Result: 10

----------
# measurement_target: Voltage-dependent T-type calcium channel subunit alpha-1G (Homo sapiens, UniProt O43497)
# protocol_notes: Inhibition of t-type Cav3.1 channel (unknown origin) expressed in HEK293 cells assessed as inhibition of 50 ms depolarizing voltage step-induced current by whole cell patch-clamp method
readout: pIC50
The read-out pIC50 is expressed as -log10 of concentration in moles per litre.

Check out these entries, answers already filled in.
Request: Fill in the blank: the reported pIC50 of CN(C)CCN1CCN(C2=Nc3ccccc3C(CC(=O)NCc3ccc(F)cc3)N2c2ccc(-c3ccccc3)cc2)CC1 (configuration not stated) is ____.
Result: 6.49

Request: Repeat for the following compound: Cc1ccc(CNC(=O)CC2c3ccccc3N=C(N3CCN(CCN(C)C)CC3)N2c2ccc(-c3ccccc3)cc2)cc1 (configuration not stated)
Result: 6.34

Request: Repeat for the following compound: CN(C)CCCCN(C)C1=Nc2ccccc2C(CC(=O)NCc2ccccc2)N1c1ccc(-c2ccccc2)cc1 (configuration not stated)
Result: 6.51

Request: Repeat for the following compound: CN(C)CCCCCN(C)C1=Nc2ccccc2C(CC(=O)NCc2ccccc2)N1c1ccc(-c2ccccc2)cc1 (configuration not stated)
Result: 6.59

Request: Repeat for the following compound: COc1ccc(CNC(=O)CC2c3ccccc3N=C(N3CCN(CCN(C)C)CC3)N2c2ccc(-c3ccccc3)cc2)cc1 (configuration not stated)
Result: 6.51

Others:
Request: Fill in the blank: the reported pIC50 of COc1ccc(CNC(=O)CC2c3ccccc3N=C(N(C)CCCCCN(C)C)N2c2ccc(-c3ccccc3)cc2)cc1 (configuration not stated) is ____.
Result: 6.41

Request: Repeat for the following compound: CN(C)CCCCCCN(C)C1=Nc2ccccc2C(CC(=O)NCc2ccccc2)N1c1ccc(-c2ccccc2)cc1 (configuration not stated)
Result: 6.26
